Molecular target: human insulin receptor isoform A (human, UniProt P06213-2 28-1370)
Sequence (P06213 other isoform, or with tags, fused parts or gaps): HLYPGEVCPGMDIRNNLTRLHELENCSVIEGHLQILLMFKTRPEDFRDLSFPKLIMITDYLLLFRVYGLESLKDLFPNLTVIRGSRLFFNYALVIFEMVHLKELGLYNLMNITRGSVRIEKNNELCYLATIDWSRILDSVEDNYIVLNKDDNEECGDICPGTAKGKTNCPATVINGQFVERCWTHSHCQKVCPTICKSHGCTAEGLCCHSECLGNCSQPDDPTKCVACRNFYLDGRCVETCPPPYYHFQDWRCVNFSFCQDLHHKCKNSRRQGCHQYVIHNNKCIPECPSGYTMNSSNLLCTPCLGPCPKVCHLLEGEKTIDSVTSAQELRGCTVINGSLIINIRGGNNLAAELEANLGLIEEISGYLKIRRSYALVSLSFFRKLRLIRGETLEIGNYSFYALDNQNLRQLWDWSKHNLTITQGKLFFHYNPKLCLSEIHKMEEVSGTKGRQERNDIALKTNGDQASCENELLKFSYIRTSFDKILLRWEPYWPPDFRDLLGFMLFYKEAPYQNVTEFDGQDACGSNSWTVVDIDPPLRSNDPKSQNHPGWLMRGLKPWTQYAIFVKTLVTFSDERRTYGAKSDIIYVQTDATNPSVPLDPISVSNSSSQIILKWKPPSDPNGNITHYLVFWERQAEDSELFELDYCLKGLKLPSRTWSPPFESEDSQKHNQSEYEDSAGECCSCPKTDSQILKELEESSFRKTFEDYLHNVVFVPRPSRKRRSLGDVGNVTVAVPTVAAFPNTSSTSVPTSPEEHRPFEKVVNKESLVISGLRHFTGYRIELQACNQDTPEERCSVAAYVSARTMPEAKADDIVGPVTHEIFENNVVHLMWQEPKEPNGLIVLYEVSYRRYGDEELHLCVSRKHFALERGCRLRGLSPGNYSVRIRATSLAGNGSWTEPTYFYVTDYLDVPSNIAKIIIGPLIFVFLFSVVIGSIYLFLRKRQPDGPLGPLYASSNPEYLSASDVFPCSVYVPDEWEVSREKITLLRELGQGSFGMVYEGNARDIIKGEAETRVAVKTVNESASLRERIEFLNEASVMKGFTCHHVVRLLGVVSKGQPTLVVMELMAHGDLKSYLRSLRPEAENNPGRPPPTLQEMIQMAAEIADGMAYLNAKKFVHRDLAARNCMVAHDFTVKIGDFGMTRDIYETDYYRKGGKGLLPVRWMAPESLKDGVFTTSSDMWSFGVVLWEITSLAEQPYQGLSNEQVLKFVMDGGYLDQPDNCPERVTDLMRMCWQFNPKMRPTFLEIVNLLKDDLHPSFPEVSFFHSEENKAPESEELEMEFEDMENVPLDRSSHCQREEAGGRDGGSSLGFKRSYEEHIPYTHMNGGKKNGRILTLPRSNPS
Assay: cell-based or functional assay
Test readout: hIR-A phosphorylation [EC50 nM] mean
Numeric answer plus unit only.

Query :: Dear colleague, I am looking for the recorded hIR-A phosphorylation [EC50 nM] mean of the following binder: scl-Fc fusion protein INS007 (Fc fusion) SFVNQHLCGSHLVEALHLVCGERGFAYTDKTGSYPGGVGIVEQCCTSICSLEQLENYCGGEAEDLQVGQVELGGGPGAGSLQPEGSLQGGPSVFLFPPKPKDTLMISRTPEVTCVVVDVSHEDPEVKFNWYVDGVEVHNAKTKPREEQYNSTYRVVSVLTVLHQDWLNGKEYKCKVSNKALPAPIEKTISKAKGQPREPQVYTLPPSRDELTKNQVSLTCLVKGFYPSDIAVEWESNGQPENNYKTTPPVLDSDGSFFLYSKLTVDKSRWQQGNVFSCSVMHEALHNHYTQKSLSLSPGGGGGSAESKYGPPCPPCPA
Result :: 82.5 nM
